- experimental.target: recombinant human O-GlcNAcase (hOGA) (Homo sapiens, UniProt O60502)
- Construct: the N-terminal region of hOGA, comprising amino acids 11–396; the C-terminal region, comprising amino acids 535–715; His6 (N); His6 followed by 3C-protease cleavage site (N)
- Sequence (O60502 11-396): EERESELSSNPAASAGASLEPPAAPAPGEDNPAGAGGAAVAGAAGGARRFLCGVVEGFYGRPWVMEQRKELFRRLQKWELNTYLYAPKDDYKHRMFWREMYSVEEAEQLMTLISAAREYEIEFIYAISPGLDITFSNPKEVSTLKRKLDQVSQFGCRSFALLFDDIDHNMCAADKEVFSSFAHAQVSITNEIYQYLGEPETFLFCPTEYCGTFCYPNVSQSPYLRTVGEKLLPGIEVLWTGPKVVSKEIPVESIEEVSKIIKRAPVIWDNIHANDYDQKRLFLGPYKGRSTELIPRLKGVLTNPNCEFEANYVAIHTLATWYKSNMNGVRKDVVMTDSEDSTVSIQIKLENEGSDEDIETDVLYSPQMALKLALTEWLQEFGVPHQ
- Sequence (O60502 535-715): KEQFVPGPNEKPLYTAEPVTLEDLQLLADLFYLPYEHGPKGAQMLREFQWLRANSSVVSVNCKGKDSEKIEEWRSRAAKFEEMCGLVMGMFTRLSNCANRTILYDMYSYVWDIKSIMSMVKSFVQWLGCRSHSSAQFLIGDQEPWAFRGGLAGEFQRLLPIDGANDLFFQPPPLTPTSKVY
- assay.text: Inhibition of recombinant human O-GlcNAcase (resorufin N-acetyl-β-D-glucosaminide)
- applied.conditions: read-out: IC50 against OGA
observable: IC50 (µM)

[
  {
    "molecule": "CC(=O)NC1CN2C(=NCc3ccccc3)SCC2C(O)C1O (stereo not shown)",
    "observable": "IC50",
    "value": 25
  }
]

---

- experimental.target: β-hexosaminidase from human placenta
- assay.text: Commercial enzyme inhibition assay, β-hexosaminidase from human placenta
- applied.conditions: mean ± SD (n = 3); competitive
pKi: −log10 of the molar value.
Class MET: pKi at least 7. Class NOT MET: pKi below 7.

[
  {
    "molecule": "CC(=O)N[C@H]1CN(C(=S)NCc2ccccc2)[C@H](CO)[C@H](O)[C@@H]1O [Compound 3]",
    "class.name": "NOT MET"
  },
  {
    "molecule": "CCCCNC(=S)N1C[C@H](NC(C)=O)[C@@H](O)[C@@H](O)[C@H]1CO [Compound 1]",
    "class.name": "NOT MET"
  },
  {
    "molecule": "CCCCCCCCNC(=S)N1C[C@H](NC(C)=O)[C@@H](O)[C@@H](O)[C@H]1CO [Compound 2]",
    "class.name": "NOT MET"
  },
  {
    "molecule": "CC(=O)NC1CN2C(=Nc3ccccc3)SCC2C(O)C1O (centres unmarked) [Compound 8]",
    "class.name": "MET"
  },
  {
    "molecule": "CC(=O)N[C@H]1CN(C(=S)Nc2ccccc2)[C@H](CO)[C@H](O)[C@@H]1O [Compound 4]",
    "class.name": "NOT MET"
  },
  {
    "molecule": "CCCCN=C1SCC2C(O)C(O)C(NC(C)=O)CN12 (centres unmarked) [Compound 5]",
    "class.name": "MET"
  },
  {
    "molecule": "CC(=O)NC1CN2C(=NCc3ccccc3)SCC2C(O)C1O (centres unmarked) [Compound 7]",
    "class.name": "MET"
  },
  {
    "molecule": "CCCCCCCCN=C1SCC2C(O)C(O)C(NC(C)=O)CN12 (centres unmarked) [Compound 6]",
    "class.name": "MET"
  }
]

---

- experimental.target: Total Hex (human lysosomal β-hexosaminidase)
- assay.text: Inhibition of total β-hexosaminidase in human fibroblast lysates
- applied.conditions: mean of three determinations
pIC50: −log10 of the molar value.
We begin with a simple list: items and their reported pIC50.

[
  {
    "compound": "CC(=O)N[C@H]1CN(C(=S)Nc2ccccc2)[C@H](CO)[C@H](O)[C@@H]1O",
    "experimental.target": "Total Hex (human lysosomal β-hexosaminidase)",
    "qualifier.sign": "=",
    "pIC50": 4.96
  },
  {
    "compound": "CC(=O)NC1CN2C(=NCc3ccccc3)SCC2C(O)C1O (stereo not drawn)",
    "experimental.target": "Total Hex (human lysosomal β-hexosaminidase)",
    "qualifier.sign": "=",
    "pIC50": 5.66
  },
  {
    "compound": "CC(=O)N[C@H]1CN(C(=S)NCc2ccccc2)[C@H](CO)[C@H](O)[C@@H]1O",
    "experimental.target": "Total Hex (human lysosomal β-hexosaminidase)",
    "qualifier.sign": "<",
    "pIC50": 4.00
  }
]

All figures here come from paper PMC9126592.
